protocolSummary: physchem
testContext: buffer, pH 7
A collection of compounds and their measured solubility at 24 h

Here is how some compounds turned out for solubility at 24 h.
CN1CCC(C#CC#Cc2cc3n(c2)C(=O)N(CC[C@](C)(C(=O)NO)S(C)(=O)=O)C3)CC1 | > 780 µg/mL
C[C@@](CCN1Cc2cc(C#CC#C[C@H]3C[C@@H]3[C@@H](O)CO)cn2C1=O)(C(=O)NO)S(C)(=O)=O | > 780 µg/mL
C[C@@](CCN1Cc2cc(C#CC#CC3CN(CCO)C3)cn2C1=O)(C(=O)NO)S(C)(=O)=O | > 780 µg/mL

Qu. Report solubility at 24 h for CC(C)(O)CN1CC(C#CC#Cc2cc3n(c2)C(=O)N(CC[C@](C)(C(=O)NO)S(C)(=O)=O)C3)C1 please.
Ans. > 830 µg/mL

Qu. Report solubility at 24 h for C[C@@](CCN1Cc2cc(C#CC#C[C@@H]3C[C@H]3[C@H](O)CO)cn2C1=O)(C(=O)NO)S(C)(=O)=O please.
Ans. > 780 µg/mL

Qu. Report solubility at 24 h for C[C@@](CCN1Cc2cc(C#CC#CCN3CCC(O)CC3)cn2C1=O)(C(=O)NO)S(C)(=O)=O please.
Ans. > 810 µg/mL

---

System: Klebsiella pneumoniae
protocolSummary: microbe, parasite or virus in culture
testContext: T6474
measuredProperty: MIC
Please provide the amount together with its unit, number first.

Here is how some compounds turned out for MIC.
C[C@@](CCN1Cc2cc(C#CC#C[C@@H]3C[C@@]3(F)CO)cn2C1=O)(C(=O)NO)S(C)(=O)=O | 0.5 µg/mL
CN1CC(F)(C#CC#Cc2cc3n(c2)C(=O)N(CC[C@](C)(C(=O)NO)S(C)(=O)=O)C3)C1 | 0.5 µg/mL

Now for another entry.
Qu. Report MIC for CCN1CC(C#CC#Cc2cc3n(c2)C(=O)N(CC[C@](C)(C(=O)NO)S(C)(=O)=O)C3)C1 please.
Ans. 0.5 µg/mL

---

A collection of molecules and their measured solubility at 24 h
protocolSummary: physchem
testContext: buffer, pH 7

CC(=O)N1CC(C#CC#Cc2cc3n(c2)C(=O)N(CC[C@](C)(C(=O)NO)S(C)(=O)=O)C3)C1 | > 780 µg/mL

Qu. Report solubility at 24 h for C[C@@](CCN1Cc2cc(C#CC#CC3CNC3)cn2C1=O)(C(=O)NO)S(C)(=O)=O please.
Ans. > 710 µg/mL

Qu. Report solubility at 24 h for CN1CC(C#CC#Cc2cc3n(c2)C(=O)N(CC[C@](C)(C(=O)NO)S(C)(=O)=O)C3)C1 please.
Ans. > 730 µg/mL

Qu. Report solubility at 24 h for CCN1CC(C#CC#Cc2cc3n(c2)C(=O)N(CC[C@](C)(C(=O)NO)S(C)(=O)=O)C3)C1 please.
Ans. > 750 µg/mL

Data origin: ChEMBL document CHEMBL4321867
